Type: physicochemical
particulars: IAM PC.DD2 column, pH 7.4, acetonitrile gradient; UV filters
This listing pairs molecules with measured CHIIAM (chromatographic phospholipid binding).
Reply: number alone, nothing else.

molecule	number
COc1ccc(C(=O)CC(=O)c2ccc(C(C)(C)C)cc2)cc1	53.4

Req: Determine from records and report CHIIAM (chromatographic phospholipid binding) for Nc1ccc(C(=O)O)cc1
Resp: 3.30

Req: Determine from records and report CHIIAM (chromatographic phospholipid binding) for CCCCC(CC)COC(=O)c1ccccc1O (centres unmarked) [Octisalate, octisalate]
Resp: 55.1

Req: Determine from records and report CHIIAM (chromatographic phospholipid binding) for COc1cc(O)c(C(=O)c2ccccc2)cc1S(=O)(=O)O
Resp: 14.3

Req: Determine from records and report CHIIAM (chromatographic phospholipid binding) for CCCCC(CC)COC(=O)C=Cc1ccc(OC)cc1 (centres unmarked) [Octinoxate, octinoxate]
Resp: 54.2
